Experimental protocol: self-splicing fitness, log relative to wild type (ln ratio); higher = more splicing; Tetrahymena group I intron in knt gene, E. coli kanamycin selection, DiMSum; sequences stand for … in CUCUCU…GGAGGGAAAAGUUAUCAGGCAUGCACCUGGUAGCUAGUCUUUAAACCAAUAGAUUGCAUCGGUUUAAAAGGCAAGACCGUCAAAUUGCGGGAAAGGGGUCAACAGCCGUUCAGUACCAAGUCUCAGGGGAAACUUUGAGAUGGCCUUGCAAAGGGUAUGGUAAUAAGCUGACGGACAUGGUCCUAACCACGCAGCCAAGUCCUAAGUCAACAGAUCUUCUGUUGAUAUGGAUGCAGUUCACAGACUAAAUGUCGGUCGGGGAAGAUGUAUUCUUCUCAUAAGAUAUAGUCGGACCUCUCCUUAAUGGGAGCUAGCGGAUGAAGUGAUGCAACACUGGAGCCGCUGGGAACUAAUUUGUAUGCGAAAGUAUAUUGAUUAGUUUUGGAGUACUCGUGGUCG;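 note: selection with 25 µg/mL kanamycin versus none on LB agar overnight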
Run conditions: 30 °C
Entry flag: TRUE if self-splicing fitness (ln) reaches -3; FALSE if it does not.

Below, 10 sequences whose answers are already recorded.
UCGAAGCAAUAUUACGCGGA    FALSE
CGGGAGCAAUAUUACGAUAU    FALSE
UAAUAGCAAUAUUACGGCAG    TRUE
UGUGAGCAAUAUUACGGUCC    FALSE
GACCAGCAAUAUUACGUCGG    TRUE
CCGAAGCAAUAUUACGAAGU    FALSE
CGCCAGCAAUAUUACGAAUC    TRUE
UUGGAGCAAUAUUACGGUGC    TRUE
UUUCAGCAAUAUUACGAAGA    TRUE
GGCCAGCAAUAUUACGUGUG    TRUE

Read the next record carefully.
Exercise: Hi, just wondering whether GAAGAGCAAUAUUACGUCAU shows self-splicing fitness (ln) of -3 or higher.
Key: FALSE

Source of measurements: the supplement of paper PMC7877785
